biological target: full length recombinant Pim-3 protein (Homo sapiens, UniProt Q86V86); construct: by full length recombinant Pim-1, Pim-2, or Pim-3 protein; test: Pim-3 enzyme assay (HTRF, phosphorylation of biotinylated-BAD (S112) peptide); conditions: read-out: Pim3 IC50
Measured endpoint: IC50 (nM)

NC1CCN(c2cncc(-c3n[nH]c4ccc(-c5cc6ccccc6nc5O)cc34)n2)CC1 [Example 54]
4
COc1cc(-c2ccc3[nH]nc(-c4cncc(O[C@@H]5CCCNC5)n4)c3c2)ccn1 [Example 160]
12
CN(c1cncc(-c2n[nH]c3ccc(-c4c(F)cccc4F)cc23)n1)C1CCCNC1 (centres unmarked) [Example 178]
6

(1) Brc1ccc2[nH]nc(-c3cncc(O[C@@H]4CCCNC4)n3)c2c1 [Example 135]
(2) Fc1cccc(F)c1-c1ccc2[nH]cc(-c3cncc(NC4CCNCC4)n3)c2c1 [Example 205]
(3) CC(C)Oc1cncc(-c2ccc3[nH]cc(-c4cc(N)ccn4)c3c2)n1 [Example 218]
(4) NC1CCN(c2cncc(-c3n[nH]c4ccc(-c5ccccn5)cc34)n2)CC1 [Example 88]
(5) Cn1ccc2cc(-c3ccc4[nH]nc(-c5cncc(N6CCC(N)CC6)n5)c4c3)ccc2c1=O [Example 49]
Query: # rank by IC50, ascending (min first) Answer by listing the labels in the order asked for.
Reply: 2, 5, 4, 1, 3
(2: 4 nM, 5: 7 nM, 4: 57 nM, 1: 82 nM, 3: 317 nM)

(1) NC1CCN(c2cncc(-c3n[nH]c4ccc(-c5cc([N+](=O)[O-])ccc5F)cc34)n2)CC1 [Example 84]
(2) C[C@@H]1CCNC[C@H]1Oc1cncc(-c2n[nH]c3ccc(-c4c(F)cccc4F)cc23)n1 [Example 197]
(3) Cc1ccnc(-c2c[nH]c3ccc(-c4cncc(OC(C)C)n4)cc23)c1 [Example 216]
(4) N#Cc1cccc(-c2ccc3[nH]nc(-c4cncc(N5CCC(N)CC5)n4)c3c2)c1 [Example 62]
(5) Cc1c(N)cccc1-c1ccc2[nH]nc(-c3cncc(N4CCC(N)CC4)n3)c2c1 [Example 103]
Query: # rank by IC50, ascending (min first) Answer by listing the labels in the order asked for.
Reply: 1, 4, 2, 5, 3
(1: 4 nM, 4: 7 nM, 2: 18 nM, 5: 68 nM, 3: 245 nM)

(I) NC1CCCN(c2cncc(-c3c[nH]c4ccc(-c5c(F)cccc5F)cc34)n2)C1 (centres unmarked) [Example 21]
(II) NC1CCN(c2cncc(-c3n[nH]c4ccc(-c5cccc6c5C5(CCOCC5)CN6)cc34)n2)CC1 [Example 106]
Query: # return whichever of I and II has the smaller IC50 // respond with label for picked entry
Reply: I
